Tested on: MALME-3M melanoma
ASSAY_REMARKS: NCI tumour cell line growth inhibition, 48 h
VALUE_KIND: TGI

For the compound "CCCCCCCCCCCC[C@H](O)[C@H]1CC[C@H]([C@H](O)CCCC[C@H](O)CCCCC[C@@H](O)CC2=C[C@H](C)OC2=O)O1" , what TGI is on record?
32.2 µM

For the compound "N#Cc1ccc(Sc2ccccc2)cc1C#N" , what TGI is on record?
> 100 µM

For the compound "Cc1ccc(S(=O)(=O)NCCN(CCNS(=O)(=O)c2ccc(C)cc2)S(=O)(=O)c2ccc(C)cc2)cc1" , what TGI is on record?
60 µM

For the compound "O=C(/C=C/c1cccc([N+](=O)[O-])c1)c1cccnc1" , what TGI is on record?
> 100 µM

For the compound "CO/C(N)=C(\C#N)N=Cc1cccnc1" , what TGI is on record?
> 100 µM

For the compound "Cc1n[nH]c(=O)n1-c1cccnc1" , what TGI is on record?
> 100 µM

For the compound O=C1CCC(c2nc3cc(Cl)ccc3o2)C(=O)N1 (configuration not stated) , what TGI is on record?
> 100 µM

For the compound "O=[N+]([O-])c1nccn1COCCI" , what TGI is on record?
> 100 µM

For the compound CC(=O)/C=C\C1CC2C=CC1C2 (configuration not stated) , what TGI is on record?
> 100 µM

For the compound C/C=C\C(CC(=O)O)CN1CCC2=C(C1)C(S(=O)(=O)C(F)(F)F)c1ccccc12 (configuration not stated) , what TGI is on record?
> 100 µM

For the compound OC1(c2ccccc2)CCCCCCCCC(O)(c2ccccc2)CCCCCCCC1 (configuration not stated) , what TGI is on record?
> 100 µM

For the compound "COc1ccc(OC)c(NC(=O)c2c(Cl)c(Cl)c(Cl)c(Cl)c2-c2nc3ccccc3[nH]2)c1" , what TGI is on record?
> 100 µM

----------
Tested on: LOX IMVI melanoma
ASSAY_REMARKS: NCI tumour cell line growth inhibition, 48 h
Can you tell me GI50 for the items I'm about to list?

For the molecule "Cc1ccc(C)c(COc2cc(NC(=O)c3ccc4c(c3)OCO4)ccc2N(C)S(C)(=O)=O)c1" , what GI50 is on record?
79.3 nM

For the molecule "Cn1cc(C2=C(c3c4n(c5ccccc35)CCN(C(N)=S)C4)C(=O)NC2=O)c2ccccc21" , what GI50 is on record?
2500 nM

For the molecule "Oc1c(Cl)cc(Cl)c2ccc(Cn3cc(-c4cc(F)cc(F)c4)nn3)nc12" , what GI50 is on record?
1310 nM

For the molecule "Cc1nc2ccccc2c(/C=C/c2ccc(Cl)cc2)c1C(=O)/C=C/c1ccc(F)cc1" , what GI50 is on record?
1320 nM

For the molecule "ClC1=C(Cl)C(Cl)=C(Cl)C1=Cc1ccccc1" , what GI50 is on record?
198 nM

For the molecule "Fc1ccc(-c2nnc3sc(-c4cc(Cl)cc(Cl)c4)nn23)cc1Cl" , what GI50 is on record?
32800 nM

For the molecule "COc1cc(NC(=O)c2ccc(C(F)(F)F)nc2Nc2ccc(Cl)cc2C)cc(OC)c1OC" , what GI50 is on record?
3230 nM

For the molecule "Oc1ccc(-c2cn3ccsc3n2)cc1O" , what GI50 is on record?
18100 nM

For the molecule "O=C(Nc1ccc(Oc2cccc(Cl)c2)c(Cl)c1)c1cnccn1" , what GI50 is on record?
275 nM

For the molecule O=C(NC1CCC(Br)CC1)C1CCCC(S(=O)(=O)NC2CCCCC2)C1 (stereo not given) , what GI50 is on record?
10700 nM

For the molecule "Cc1cc(I)cc(CN(C)CCN2CCOCC2)c1O" , what GI50 is on record?
65000 nM

For the molecule "COc1cc2c(cc1OCCCCCN1CCN(c3cc(=O)oc4ccccc34)CC1)N=C[C@@H]1CCCN1C2=O" , what GI50 is on record?
< 38.7 nM

For the molecule CC1SC(c2ccc(Cl)c(Cl)c2)N(NC(=O)C(O)c2ccccc2)C1=O (stereo not given) , what GI50 is on record?
55200 nM

For the molecule "CCCCCCCCCCCC[C@H](O)[C@H]1CC[C@H]([C@H](O)CCCC[C@H](O)CCCCC[C@@H](O)CC2=C[C@H](C)OC2=O)O1" , what GI50 is on record?
2190 nM

For the molecule "CCCCCc1c(C)[nH]c(/C=C2\N=C(c3ccc[nH]3)C=C2Oc2ccccc2)c1C" , what GI50 is on record?
14.3 nM

----------
System: OVCAR-4 ovarian
ASSAY_REMARKS: NCI tumour cell line growth inhibition, 48 h; in the data active means GI50 below about 0.43 µM; inactive means the rest
Mark one answer only. Choices: YES = active, NO = inactive

// return assay outcome for "[N-]=[N+]=NCCCn1c2c(c3ccccc3c1=O)C(=O)c1cc(Br)ccc1-2"
NO

// return assay outcome for "O=C1Nc2ccccc2C1(c1c[nH]c2ccccc12)c1c[nH]c2ccccc12"
NO

// return assay outcome for "COc1cc(NC(=O)c2ccc(C(F)(F)F)nc2Nc2ccc(Cl)cc2C)cc(OC)c1OC"
NO

// return assay outcome for "CCN(CC)c1ccc2c(cc1=O)[C@@H](NC(C)=O)CCc1cc(OC)c(OC)c(OC)c1-2"
NO

// return assay outcome for "COc1ccc(CN2C(=O)C(Cl)=C(Nc3cccc(O)c3)C2=O)cc1"
NO

// return assay outcome for COc1cc(C(C)c2ccc3c(ccn3C)c2)cc(OC)c1OC (centres undefined)
YES

// return assay outcome for CC(=O)OC1CCC(OC(C)=O)[C@H]2[C@@H]1[C@@H]1S[C@H]2c2ccccc21 (some centres undefined)
NO

// return assay outcome for CC(C)=NNc1ncnc2c1ncn2C1OC(CO)C(O)C1O (centres undefined)
NO

// return assay outcome for COc1ccc(C(O)c2cc3c(N)c(C(=O)Nc4cccc(OC)c4)sc3nc2C)cc1 (centres undefined)
NO

----------
Test system: NCI-H522 lung
ASSAY_REMARKS: NCI tumour cell line growth inhibition, 48 h
Can you tell me TGI for the items I'm about to list?

For the compound O=C(O)CC1OCC=C2C[N+]3([O-])CCC45c6ccccc6NC4C1C2CC53 (stereo not given) , what TGI is on record?
> 100 µM

For the compound "C[C@H]1CC[C@@H]2[C@@H](C)C[C@H]3[C@@H]4C(C)(C)OC(=O)[C@]4(C)C(=O)[C@@]23C1=O" , what TGI is on record?
> 100 µM

For the compound C=C(C)C(CC=C(C)C)Cc1c(O)cc(OC)c2c1OC(c1ccc(O)cc1O)C(O)C2=O (stereo not given) , what TGI is on record?
34.2 µM

For the compound "COc1ccccc1-c1cc(=O)c2ccccc2n1C1CC1" , what TGI is on record?
5.63 µM

For the compound "N#C/C(=C\c1c(Cl)cccc1Cl)c1ccccc1" , what TGI is on record?
40.9 µM

For the compound CC1(C(=O)O)CCC(C(=O)O)C(C)(C)O1 (stereo not given) , what TGI is on record?
> 100 µM

For the compound "Cn1c(/C=C/CO)c(CO)c2c1C(=O)C=C(N1CC1)C2=O" , what TGI is on record?
< 0.018 µM

For the compound "COC(=O)[C@]12CC[C@H]3CN(C(=O)OCc4ccccc4)[C@H]([C@H]31)[C@H](C(=O)OCC[Si](C)(C)C)N2S(=O)(=O)c1ccc(C)cc1" , what TGI is on record?
> 100 µM

For the compound "COc1ccc(-c2c(C#N)c(N)nc3c2COc2ccc(F)cc2-3)cc1OC" , what TGI is on record?
> 100 µM

For the compound "CC1(C)C(=NN=C(N)N)C(C)(C)C1=NN=C(N)N" , what TGI is on record?
> 100 µM

For the compound CC(C)OP(=O)(c1ccccc1)c1ccc2c(c1)OCCOCCOCCOCCO2 (stereo not given) , what TGI is on record?
> 100 µM

For the compound CCC1([N+](=O)[O-])CC2C=CC1C2 (stereo not given) , what TGI is on record?
> 100 µM

For the compound O=S(=O)(c1ccccc1)C1CN2OC1(S(=O)(=O)c1ccccc1)CC21CCCCC1 (stereo not given) , what TGI is on record?
> 100 µM

For the compound C[C@]12CC[C@H](OC3OC(O)C(O)C(O)C3O)C=C1CCC1C2CC[C@]2(C)[C@@H](c3ccc(=O)oc3)CC[C@]12O (stereo not given in full) , what TGI is on record?
0.0114 µM

For the compound "COc1ccc2c(c1OC)CO[C@@H]2[C@H]1c2c(c(Br)c3c(c2OC)OCO3)CCN1C" , what TGI is on record?
23.1 µM
